test system: MFM-223; experiment: normalised response (% of control), CellTox Green; higher = less cell death (100 = DMSO, 0 = benzethonium chloride kill control); details: incubation time: 72 h
Endpoint: normalised response (%)
The reply should be a number in %, with the unit left off.

Consider the following illustrative entries.
>  <Compound>
CN[C@@H]1C[C@H]2O[C@@](C)([C@@H]1OC)n1c3ccccc3c3c4c(c5c6ccccc6n2c5c31)C(=O)N[C@H]4O [UCN-01] (10000 nM)

>  <Study target>
MFM-223

>  <Reported>
78.1

$$$$
>  <Compound>
NC(=O)Nc1cc(-c2cccc(F)c2)sc1C(=O)N[C@H]1CCCNC1 [AZD7762] (10 nM)

>  <Study target>
MFM-223

>  <Reported>
104

$$$$

We now examine a further compound.
// sample N.N.[Cl][Pt][Cl] [Cisplatin] (100 nM) , its normalised response was 82.7

From: the supplement of paper PMC4862054
